Origin of measurements: patent US8158635B2

# assay-notes: Approximate solubilities of solid forms in solvents
# Format: physicochemical
# condition: n-butanol, 25 °C, organic solvent or mixture, thermodynamic from solid; solvent n-Butanol; about 25° C., at least 24 hours; read-out: Approximate Solubility (mg/mL) of Form A of the Free Base of Compound I
reported-endpoint: solubility

State its solubility for this compound: O[C@H]1CC[C@H](Nc2ncc3nc(Nc4c(F)cc(F)cc4F)n([C@H]4CCOC4)c3n2)CC1 (stereo in doubt) [Form A of the Free Base of Compound I]
7.5 mg/mL

---

# assay-notes: Approximate solubilities of solid forms in solvents
# Format: physicochemical
# condition: methylene chloride, 25 °C, organic solvent or mixture, thermodynamic from solid, column 1; solvent Methylene chloride; about 25° C., at least 24 hours; read-out: Approximate Solubility (mg/mL) of Form A of the Free Base of Compound I
reported-endpoint: solubility (mg/mL)
Report as a plain number; the unit mg/mL is understood.

State its solubility for this molecule: O[C@H]1CC[C@H](Nc2ncc3nc(Nc4c(F)cc(F)cc4F)n([C@H]4CCOC4)c3n2)CC1 (stereo in doubt) [Form A of the Free Base of Compound I]
11.6

---

# assay-notes: Approximate solubilities of solid forms in solvents
# Assay type: physicochemical
# condition: acetone, 25 °C, organic solvent or mixture, thermodynamic from solid; solvent Acetone; about 25° C., at least 24 hours; read-out: Approximate Solubility (mg/mL) of Form A of the Free Base of Compound I
reported-endpoint: solubility (mg/mL)
Report as a plain number; the unit mg/mL is understood.

State its solubility for this compound: O[C@H]1CC[C@H](Nc2ncc3nc(Nc4c(F)cc(F)cc4F)n([C@H]4CCOC4)c3n2)CC1 (stereo in doubt) [Form A of the Free Base of Compound I]
1.14

---

# assay-notes: Approximate solubilities of solid forms in solvents
# Assay type: physicochemical
# condition: n-butanol, 25 °C, organic solvent or mixture, thermodynamic from solid, column 1; solvent n-Butanol; about 25° C., at least 24 hours; read-out: Approximate Solubility (mg/mL) of Form A of the Free Base of Compound I
reported-endpoint: solubility (mg/mL)
Report as a plain number; the unit mg/mL is understood.

State its solubility for this compound: O[C@H]1CC[C@H](Nc2ncc3nc(Nc4c(F)cc(F)cc4F)n([C@H]4CCOC4)c3n2)CC1 (stereo in doubt) [Form A of the Free Base of Compound I]
19.3

---

# assay-notes: Approximate solubilities of solid forms in solvents
# Format: physicochemical
# condition: tetrahydrofuran, 25 °C, organic solvent or mixture, thermodynamic from solid, column 1; solvent Tetrahydrofuran; about 25° C., at least 24 hours; read-out: Approximate Solubility (mg/mL) of Form A of the Free Base of Compound I
# Protocol: A weighed sample comprising either the free base or the HCl salt of Compound I was treated with 2 mL of a solvent (either HPLC or reagent grade). The resulting mixture was agitated for at least 24 hours at about 25° C. When all of the solids were dissolved by visual inspection, the estimated solubility was calculated. […] The actual solubility may be greater than those calculated due to the use of a large amount of solvent or a slow rate of dissolution. […]
reported-endpoint: solubility

State its solubility for this compound: O[C@H]1CC[C@H](Nc2ncc3nc(Nc4c(F)cc(F)cc4F)n([C@H]4CCOC4)c3n2)CC1 (stereo in doubt) [Form A of the Free Base of Compound I]
> 50 mg/mL

---

# assay-notes: Approximate solubilities of solid forms in solvents
# Type: physicochemical
# condition: acetonitrile, 25 °C, organic solvent or mixture, thermodynamic from solid, column 1; solvent Acetonitrile; about 25° C., at least 24 hours; read-out: Approximate Solubility (mg/mL) of Form A of the Free Base of Compound I
# Experimental: A weighed sample comprising either the free base or the HCl salt of Compound I was treated with 2 mL of a solvent (either HPLC or reagent grade). The resulting mixture was agitated for at least 24 hours at about 25° C. When all of the solids were dissolved by visual inspection, the estimated solubility was calculated. […] The actual solubility may be greater than those calculated due to the use of a large amount of solvent or a slow rate of dissolution. […]
reported-endpoint: solubility (mg/mL)
Report as a plain number; the unit mg/mL is understood.

State its solubility for this compound: O[C@H]1CC[C@H](Nc2ncc3nc(Nc4c(F)cc(F)cc4F)n([C@H]4CCOC4)c3n2)CC1 (stereo in doubt) [Form A of the Free Base of Compound I]
2.58

---

# assay-notes: Approximate solubilities of solid forms in solvents
# Assay type: physicochemical
# condition: acetone, 25 °C, organic solvent or mixture, thermodynamic from solid, column 1; solvent Acetone; about 25° C., at least 24 hours; read-out: Approximate Solubility (mg/mL) of Form A of the Free Base of Compound I
reported-endpoint: solubility (mg/mL)
Report as a plain number; the unit mg/mL is understood.

State its solubility for this molecule: O[C@H]1CC[C@H](Nc2ncc3nc(Nc4c(F)cc(F)cc4F)n([C@H]4CCOC4)c3n2)CC1 (stereo in doubt) [Form A of the Free Base of Compound I]
11.6

---

# assay-notes: Approximate solubilities of solid forms in solvents
# Format: physicochemical
# condition: acetonitrile, 25 °C, organic solvent or mixture, thermodynamic from solid; solvent Acetonitrile; about 25° C., at least 24 hours; read-out: Approximate Solubility (mg/mL) of Form A of the Free Base of Compound I
# Procedure: A weighed sample comprising either the free base or the HCl salt of Compound I was treated with 2 mL of a solvent (either HPLC or reagent grade). The resulting mixture was agitated for at least 24 hours at about 25° C. When all of the solids were dissolved by visual inspection, the estimated solubility was calculated. […] The actual solubility may be greater than those calculated due to the use of a large amount of solvent or a slow rate of dissolution. […]
reported-endpoint: solubility (mg/mL)
Report as a plain number; the unit mg/mL is understood.

State its solubility for this compound: O[C@H]1CC[C@H](Nc2ncc3nc(Nc4c(F)cc(F)cc4F)n([C@H]4CCOC4)c3n2)CC1 (stereo in doubt) [Form A of the Free Base of Compound I]
1.56
